Test system: soybean (Glycine max var. Winchester)
Assay: Preemergence herbicidal activity, soybean
Format: in vivo
Details: Rate of Application 0.3 Kg/Ha, examined after 12-17 days
Method: The benzofused heterocyclic compounds of this invention were tested for pre- and postemergence herbicidal activity using a variety of crops and weeds. […] The preemergence flats were initially subjected to a light water spray. […] After 12-17 days the plants were examined and the phytotoxicity data were recorded. […]
One threshold, 80%, splits the recorded PREEMERGENCE HERBICIDAL ACTIVITY (% CONTROL) SOY values: lower ones are label 1, equal or higher ones are label 0.

compound=Cc1nc2c(-n3c(=O)cc(C(F)(F)F)n(C)c3=O)c(F)cc(Cl)c2[nH]1 class="label 0"
compound=Cn1c(C(F)(F)F)cc(=O)n(-c2ccc(Cl)c3cc(C=O)oc23)c1=O class="label 1"
compound="CC(=O)OC(c1ccccc1)c1nc2c(-n3c(=O)cc(C(F)(F)F)n(C)c3=O)c(F)cc(Br)c2o1 (stereo not shown)" class="label 1"

## Task In the record for CCCc1cc2c(Cl)cc(F)c(-n3c(=O)cc(C(F)(F)F)n(C)c3=O)c2o1 , is PREEMERGENCE HERBICIDAL ACTIVITY (% CONTROL) SOY less than 80%?
## Result label 0

## Task In the record for Cc1nc2c(-n3c(=O)cc(C(F)(F)F)n(N)c3=O)c(F)cc(Cl)c2o1 , is PREEMERGENCE HERBICIDAL ACTIVITY (% CONTROL) SOY less than 80%?
## Result label 0

## Task In the record for CCOC(=O)c1cc2c(-n3c(=O)cc(C(F)(F)F)n(C)c3=O)c(F)cc(Cl)c2n1C , is PREEMERGENCE HERBICIDAL ACTIVITY (% CONTROL) SOY less than 80%?
## Result label 0

## Task In the record for COCc1nc2c(-n3c(=O)cc(C(F)(F)F)n(C)c3=O)c(F)cc(Br)c2o1 , is PREEMERGENCE HERBICIDAL ACTIVITY (% CONTROL) SOY less than 80%?
## Result label 0

## Task In the record for Cc1cc2c(Cl)ccc(-n3c(=O)cc(C(F)(F)F)n(C)c3=O)c2o1 , is PREEMERGENCE HERBICIDAL ACTIVITY (% CONTROL) SOY less than 80%?
## Result label 1

## Task In the record for CC(O)c1cc2c(Cl)cc(F)c(-n3c(=O)cc(C(F)(F)F)n(C)c3=O)c2o1 (stereo not shown) , is PREEMERGENCE HERBICIDAL ACTIVITY (% CONTROL) SOY less than 80%?
## Result label 0

## Task In the record for Cn1c(C(F)(F)F)cc(=O)n(-c2ccc(Cl)c3cc(C(=O)O)oc23)c1=O , is PREEMERGENCE HERBICIDAL ACTIVITY (% CONTROL) SOY less than 80%?
## Result label 1

## Task In the record for COC(=O)CCc1cc2c(Cl)cc(F)c(-n3c(=O)cc(C(F)(F)F)n(C)c3=O)c2o1 , is PREEMERGENCE HERBICIDAL ACTIVITY (% CONTROL) SOY less than 80%?
## Result label 0

## Task In the record for CON=Cc1cc2c(Cl)ccc(-n3c(=O)cc(C(F)(F)F)n(C)c3=O)c2o1 , is PREEMERGENCE HERBICIDAL ACTIVITY (% CONTROL) SOY less than 80%?
## Result label 1

## Task In the record for Cn1c(C(F)(F)F)cc(=O)n(-c2c(F)cc(Cl)c3cc(C(C)(C)NS(C)(=O)=O)oc23)c1=O , is PREEMERGENCE HERBICIDAL ACTIVITY (% CONTROL) SOY less than 80%?
## Result label 0

## Task In the record for CCOC(OCC)c1cc2c(Cl)cc(F)c(-n3c(=O)cc(C(F)(F)F)n(C)c3=O)c2o1 , is PREEMERGENCE HERBICIDAL ACTIVITY (% CONTROL) SOY less than 80%?
## Result label 0

====

system: soybean (Glycine max var. Winchester); test: Postemergence herbicidal activity, soybean; format: in vivo; details: rate of application 0.3 Kg/Ha, rated after 12-17 days
Measured Property: Postemergence herbicidal activity (% control) SOY
Answer as a quantity: numeral, then unit.

The following compounds have reported results that may help.
compound=Cn1c(C(F)(F)F)cc(=O)n(-c2c(F)cc(Br)c3oc(NS(C)(=O)=O)nc23)c1=O experimental_result=50%
compound=COC(=O)Cc1nc2c(-n3c(=O)cc(C(F)(F)F)n(C)c3=O)c(F)cc(Br)c2o1 experimental_result=95%
compound=CCOC(=O)CCc1nc2c(-n3c(=O)cc(C(F)(F)F)n(C)c3=O)c(F)cc(Cl)c2[nH]1 experimental_result=100%
compound=Cn1c(C(F)(F)F)cc(=O)n(-c2c(F)cc(Cl)c3cc(CCCl)oc23)c1=O experimental_result=100%
compound="CC(OC(=O)NCc1ccccc1)c1cc2c(Cl)cc(F)c(-n3c(=O)cc(C(F)(F)F)n(C)c3=O)c2o1 (stereo not shown)" experimental_result=95%

// next item, Postemergence herbicidal activity (% control) SOY requested
## Task Complete the entry with Postemergence herbicidal activity (% control) SOY for CN(C)C(=O)c1cc2c(Cl)ccc(-n3c(=O)cc(C(F)(F)F)n(C)c3=O)c2o1
## Result 80%

====

Tested on: morningglory (Ipomea lacunosa or Ipomea hederacea)
Assay: Preemergence herbicidal activity, morningglory
Assay type: in vivo
Conditions: Rate of Application 0.3 Kg/Ha, examined after 12-17 days
Method: The benzofused heterocyclic compounds of this invention were tested for pre- and postemergence herbicidal activity using a variety of crops and weeds. […] The preemergence flats were initially subjected to a light water spray. […] After 12-17 days the plants were examined and the phytotoxicity data were recorded. […]
The reader will find reported PREEMERGENCE HERBICIDAL ACTIVITY (% CONTROL) IPOSS values listed item by item below.
Give the value in % but do not write % after it.

molecule="Cn1c(C(F)(F)F)cc(=O)n(-c2c(F)cc(Cl)c3oc(NS(C)(=O)=O)nc23)c1=O [Compound 42]" measured_on="morningglory (Ipomea lacunosa or Ipomea hederacea)" experimental_result=60

## Task Complete the entry with PREEMERGENCE HERBICIDAL ACTIVITY (% CONTROL) IPOSS for Cn1c(C(F)(F)F)cc(=O)n(-c2c(F)cc(Cl)c3cc(CCF)oc23)c1=O [Compound 237]
## Result 100

## Task Complete the entry with PREEMERGENCE HERBICIDAL ACTIVITY (% CONTROL) IPOSS for Cn1c(C(F)(F)F)cc(=O)n(-c2ccc(Cl)c3cc(CO)oc23)c1=O [Compound 238]
## Result 100

## Task Complete the entry with PREEMERGENCE HERBICIDAL ACTIVITY (% CONTROL) IPOSS for Cn1c(C(F)(F)F)cc(=O)n(-c2c(F)cc(Cl)c3nc(Cc4ccc(Cl)cc4)[nH]c23)c1=O [Compound 383]
## Result 60

## Task Complete the entry with PREEMERGENCE HERBICIDAL ACTIVITY (% CONTROL) IPOSS for Cn1c(C(F)(F)F)cc(=O)n(-c2c(F)cc(Cl)c3[nH]c(C4CCCCC4)nc23)c1=O [Compound 373]
## Result 100

## Task Complete the entry with PREEMERGENCE HERBICIDAL ACTIVITY (% CONTROL) IPOSS for Cn1c(C(F)(F)F)cc(=O)n(-c2c(F)cc(Cl)c3[nH]c(C(F)F)nc23)c1=O [Compound 364]
## Result 100

## Task Complete the entry with PREEMERGENCE HERBICIDAL ACTIVITY (% CONTROL) IPOSS for Cn1c(C(F)(F)F)cc(=O)n(-c2c(F)cc(Cl)c3cc(CCCC#N)oc23)c1=O [Compound 256]
## Result 100

## Task Complete the entry with PREEMERGENCE HERBICIDAL ACTIVITY (% CONTROL) IPOSS for CCN(CC)Cc1cc2c(Cl)ccc(-n3c(=O)cc(C(F)(F)F)n(C)c3=O)c2o1 [Compound 257]
## Result 70

## Task Complete the entry with PREEMERGENCE HERBICIDAL ACTIVITY (% CONTROL) IPOSS for Cn1c(C(F)(F)F)cc(=O)n(-c2c(F)cc(Cl)c3nc(Cc4ccccc4Cl)[nH]c23)c1=O [Compound 381]
## Result 100

## Task Complete the entry with PREEMERGENCE HERBICIDAL ACTIVITY (% CONTROL) IPOSS for COCc1nc2c(-n3c(=O)cc(C(F)(F)F)n(C)c3=O)c(F)cc(Cl)c2[nH]1 [Compound 370]
## Result 100
